System: U-937 cells
measurement-description: Anti-proliferation CTG assay, U-937
Type: cell-based, human
measurement-setup: Homo sapiens; U-937, 72-hour CTG assay; read-out: IC50 of the anti-proliferative effect
readout-type: IC50 (nM)
Report the value in nM with no unit label.

Tell me the measured IC50 of O=C1CCC(N2Cc3cc(CNC(=O)C(F)(F)c4ccc(Cl)cc4)ccc3C2=O)C(=O)N1 (stereo not shown) , please.
74

---

Test system: KG-1 AML cell cultures
measurement-description: Induction of apoptosis (Annexin V assay), KG-1
Format: cell-based
measurement-setup: Homo sapiens, KG-1, Compound F 0 μM; read-out: Induction of Apoptosis by Compound D (Annexin V assay) EC50
readout-type: EC50

// EC50 lookup, key: O=C1CCC(N2Cc3cc(CNC(=O)C(F)(F)c4ccc(Cl)cc4)ccc3C2=O)C(=O)N1 (stereo not shown)
20 nM

---

Tested on: HNT-34 cells
measurement-description: Anti-proliferation 72-hour CTG assay, HNT-34
Type: cell-based
measurement-setup: Homo sapiens, HNT-34; read-out: anti-proliferative activity IC50
readout-type: IC50
Write your answer as a measured quantity: the number, then the unit.

# input compound: O=C1CCC(N2Cc3cc(CNC(=O)C(F)(F)c4ccc(Cl)cc4)ccc3C2=O)C(=O)N1 (stereo not shown) ; wanted: its IC50
3 nM

---

Test system: MOLM-13 cells
measurement-description: Anti-proliferation CTG assay, MOLM-13
Assay type: cell-based, human
measurement-setup: Homo sapiens; MOLM-13, 72-hour CTG assay; read-out: IC50 of the anti-proliferative effect
readout-type: IC50

Quick one: IC50 for O=C1CCC(N2Cc3cc(CNC(=O)C(F)(F)c4ccc(Cl)cc4)ccc3C2=O)C(=O)N1 (stereo not shown) ?
75 nM

---

System: OCI-AML2 cells
measurement-description: Apoptosis (caspase 3/7 activation), OCI-AML2
Format: cell-based, human
measurement-setup: Homo sapiens, read-out: Compound D-induced Apoptosis EC50; OCI-AML2, 96 hr
readout-type: pEC50
// pEC50 here means minus log10 of the molar concentration (mol/L)

Record request: pEC50 value, item O=C1CCC(N2Cc3cc(CNC(=O)C(F)(F)c4ccc(Cl)cc4)ccc3C2=O)C(=O)N1 (stereo not shown)
7.42

---

System: HNT-34 cells
measurement-description: Apoptosis (caspase 3/7 activation), HNT-34
Type: cell-based, human
measurement-setup: Homo sapiens, read-out: Compound D-induced Apoptosis EC50; HNT-34, 96 hr
readout-type: pEC50
pEC50 here: minus log base 10 of the concentration, concentration in moles per litre.

So what's the measured pEC50 for this one? O=C1CCC(N2Cc3cc(CNC(=O)C(F)(F)c4ccc(Cl)cc4)ccc3C2=O)C(=O)N1 (stereo not shown) [Compound D]
8.70

---

Tested on: nontumorigenic human hepatocellular cell line THLE-2
measurement-description: Anti-proliferation, THLE-2
Format: cell-based
measurement-setup: THLE-2 (data not shown)
pIC50: −log10 of the molar value.
readout-type: pIC50

// pIC50 lookup, key: O=C1CCC(N2Cc3cc(CNC(=O)C(F)(F)c4ccc(Cl)cc4)ccc3C2=O)C(=O)N1 (stereo not shown)
~5.00

---

Test system: HL-60 cells
measurement-description: Apoptosis (caspase 3/7 activation), HL-60
Assay type: cell-based, human
measurement-setup: Homo sapiens, read-out: Compound D-induced Apoptosis EC50; HL-60, 24 hr
readout-type: EC50 (nM)
Dear colleague, please return just the value in nM, with no unit written.

So what EC50 did O=C1CCC(N2Cc3cc(CNC(=O)C(F)(F)c4ccc(Cl)cc4)ccc3C2=O)C(=O)N1 (stereo not shown) get with HL-60 cells?
73
